Data origin, for the record: ChEMBL document CHEMBL1201862

Tested on: SN12C
Experiment: NCI tumour cell line growth inhibition, 48 h
Active and inactive are the calls of the source. Rule as the data show it: active = GI50 up to about 1.1 µM and inactive = higher. Where a SMILES comes first, the peptide text is derived from it. [ ]: non-standard residue; d: D form. The star is where a group is joined. Bn2Val = CC(C)[C@@H](C(=O)*)N(Cc1ccccc1)Cc1ccccc1; NH(3,4-diMeO-benzyl) = COc1ccc(CN*)cc1OC; NMeV = CN[C@H](C(=O)O)C(C)C
Respond with a class label; see active, inactive

CC1=C[C@]2(CC(C)C3C(CC4(C)C5CCC6C(C)(C)C(=O)CC[C@@]67C[C@@]57CC[C@]34C)O2)OC1=O (some centres not stated) | inactive

Per the records of this test, what outcome belongs to N#C/C(=C\Nc1ccccn1)C(=O)c1ccco1 ?
inactive

# iterate: CCOC(=O)/C(C#N)=N\Nc1ccc(-n2c(C)nc3ccccc3c2=O)cc1
inactive

# iterate: COc1ccc(CNC(=O)[C@@H]2CCCN2C(=O)[C@@H]2CCCN2C(=O)[C@H](C(C)C)N(C)C(=O)[C@@H](NC(=O)[C@H](C(C)C)N(Cc2ccccc2)Cc2ccccc2)C(C)C)cc1OC (Bn2Val-V[NMeV]PP-{NH(3,4-diMeO-benzyl)})
inactive

# iterate: CC1Oc2c(c(=O)oc3ccccc23)[C@@]1(C)CC1C[C@H](C)C(=O)O1 (some centres not stated)
inactive

# iterate: CC(C)(C)OC(=O)N1C(=O)OC[C@@H]2C=C[C@@H]21
inactive

# iterate: Brc1ccc(-c2[nH]c3ccccc3c2/C=N\Nc2ccc(-c3nc4ccccc4[nH]3)cc2)cc1
active

# iterate: Nc1ccccc1/C=C\c1ccccc1
inactive

# iterate: CN(C)C1COC2Cc3ccccc3C1O2 (configuration not stated)
inactive

# iterate: N/C(=N\c1ccc(Cl)cc1)NS(=O)(=O)c1ccc(-c2ncccc2C(F)(F)F)s1
inactive

# iterate: C[C@@]1(O)C2C3CC4C5C3C1[C@](O)(C42)[C@H]5Br (some centres not stated)
inactive

# iterate: CC1C(c2ccccc2O)c2cc3c(cc2OC1N1CCCC1)OCO3 (configuration not stated)
inactive

# iterate: O=C1c2ccccc2C(=O)[C@@]23O[C@@]12C1(Oc2cccc4cccc(c24)O1)[C@@H]1O[C@@H]1[C@@H]3O
inactive

# iterate: COc1c(O)ccc(C2=Cc3ccc(O)cc3OC2)c1OC
inactive

# iterate: OCCN(C1=NCCN1)/[N+](=C\c1ccccn1)[CH-]c1ccccn1
inactive

# iterate: CSC1=N/C(=C\c2cccs2)C(=O)N1CN1CCCCC1
inactive

# iterate: N#Cc1ccc(C2OCC3CC=CCC3CO2)cc1 (configuration not stated)
inactive

# iterate: Cn1c2c(c3ccccc31)C1C(=O)N(c3ccccc3)C(=O)C1CC2 (configuration not stated)
inactive

# iterate: O=C(O)Cc1cc(=O)[nH]c2c1C(=O)CCC2
inactive

# iterate: O=C(O)C(Br)C(Br)c1ccccc1[N+](=O)[O-] (configuration not stated)
inactive

# iterate: [O-][N+](CCO)(CCO)c1ncnc2[nH]cnc12
inactive

# iterate: CC1=CC(=O)CCC2(C)C1CC[C@@H]2OC=O (some centres not stated)
inactive

# iterate: C[C@]12CC[C@@H]3c4ccc(O)cc4CC[C@H]3[C@@H]1C/C(=C\c1ccncc1)[C@@H]2O
inactive

----------
System: UACC-257
Experiment: NCI tumour cell line growth inhibition, 48 h
The source made the active and inactive calls. No stated cut-off is given here; in the data, active = GI50 up to about 1.1 µM and inactive = higher.
Respond with a class label; see True (active), False (inactive)

COC1C(O)CC(OC2CC(Oc3cc4cc5c(c(O)c4c(O)c3C)C(=O)[C@@H](OC3CC(OC4CC(OC6CC(C)(O)C(OC(C)=O)C(C)O6)C(O)C(C)O4)C(O)C(C)O3)[C@H]([C@H](OC)C(=O)[C@@H](O)[C@@H](C)O)C5)OC(C)C2OC(C)=O)OC1C (some centres undefined) | True

Per the records of this test, what outcome belongs to O=C(O)C1CCCCN1C(=O)c1ccccc1 (centres undefined) ?
False

# iterate: O=c1ccc(=O)n(-c2ccccc2)[nH]1
False

# iterate: Nc1nc(N)c2ncn(Cc3c(Cl)cccc3Cl)c2n1
False

# iterate: COc1ccccc1/C=C/C1=NN(c2cccc(S(=O)(=O)O)c2)C2(C1)SCC(=O)N2c1nc2ccccc2s1 (centres undefined)
False

# iterate: O=C(O)CCSC(=S)Nc1cccc(F)c1
False

# iterate: Nc1nc(-c2ccccc2)cc(-c2cc(Cl)ccc2O)n1
False

# iterate: S=c1nc(Nc2ccccc2)c2c3c(sc2[nH]1)CCCC3
False

# iterate: Cc1ccc(C)c(N2C(=O)C(=O)C(c3nc4ccccc4o3)C(=O)C2=O)c1
False

----------
System: DMS-273
Experiment: NCI tumour cell line growth inhibition, 48 h
Activity calls are given as the source filed them. No stated cut-off is given here; in the data, active = GI50 up to about 1.1 µM and inactive = higher.
I'd be grateful if you could share measured GI50 for these entries.

Take a look at these entries with their results.
COc1cccc2c1C(=O)OC2c1cccc2ccccc12 (stereo unspecified) | > 100 µM (inactive)
C/N=C1\S/C(=N\c2ccc(N(C)C)cc2)N1C | 54.1 µM (inactive)
O=C1C=CC(=O)N1Nc1ccc([N+](=O)[O-])cc1[N+](=O)[O-] | > 100 µM (inactive)
[O-][S+](Cc1cnc2ccccc2c1)c1nc2ccccc2nc1-c1cccs1 (stereo unspecified) | 13.7 µM (inactive)
CC(C(=O)c1ccc(Cl)cc1)/C(=N/NC(=O)NN)C(=O)Nc1cccc(C(F)(F)F)c1 (stereo unspecified) | > 100 µM (inactive)

Turning now to a further record.
What value of GI50 has been reported for the following compound? COC(=O)c1cc2c3ccccc3n(C(C)=O)c2cn1
> 100 µM (inactive)

----------
Test system: NCI-H226
Test: NCI tumour cell line growth inhibition, 48 h
Calls of active or inactive are those of the source. No stated cut-off is given here; in the data, active = GI50 up to about 1.1 µM and inactive = higher.
I'd be grateful if you could share measured GI50 for these entries.

Provide each entry's GI50 from the list below.
1. CS/C(c1ccccc1)=[N+](\[O-])Cc1ccccc1
2. Clc1ccc2c(c1)[nH]c1c2nc2sccn21
3. COc1ccc([C@H]2[C@@H]3CCc4ccccc4C3=NN2C(N)=S)cc1OC
4. CNC(=O)CN(C)C(=O)CCC(=O)N(C)C
5. N#Cc1ccc(-c2nc3c(N)ncnc3o2)cc1

> 100 µM (inactive)
> 100 µM (inactive)
45.6 µM (inactive)
> 100 µM (inactive)
> 100 µM (inactive)

----------
System: HCC 2998
Assay: NCI tumour cell line growth inhibition, 48 h
The source made the active and inactive calls. Cut-off read from the data, not from the text of the source: active = GI50 up to about 1.1 µM and inactive = higher.
property.label: GI50

N#CC(N)(C(=O)C(=O)NCCCNC(=O)C(=O)C(N)(C#N)c1ccc(Cl)cc1)c1ccc(Cl)cc1 (stereo not given) | > 100 µM (inactive)

Provide each entry's GI50 from the list below.
1. COc1cc2c(cc1OC)[C@@H](Nc1ccc(F)cc1)C1COC(=O)[C@@H]1C2c1cc(OC)c(O)c(OC)c1 (stereo not given in full)
2. O=C(O)C(Br)C(Br)c1ccccc1[N+](=O)[O-] (stereo not given)

1. 2.65 µM (inactive)
2. > 100 µM (inactive)

Provide each entry's GI50 from the list below.
1. CCOC(=O)C(NC(=O)OCc1ccccc1)C(=O)O (stereo not given)
2. O=c1[nH]nc(-c2ccccc2)n1/N=C/c1cccc([N+](=O)[O-])c1

1: > 100 µM (inactive); 2: > 100 µM (inactive)

----------
Tested on: M14
Assay: NCI tumour cell line growth inhibition, 48 h
Calls of active or inactive are those of the source. Rule as the data show it: active = GI50 up to about 1.1 µM and inactive = higher.
I'd be grateful if you could share measured GI50 for these entries.

CC(=O)Nc1c(C)cc2c(nc3n2CCC3O)c1[N+](=O)[O-] (centres undefined) | > 100 µM (inactive)
Cc1ccc(S(=O)(=O)N2CCCCN(S(=O)(=O)c3ccc(C)cc3)Cc3ccccc3OCCOCCOc3c4cccc3Cc3cccc5c3OCCOCCOc3ccccc3CN(S(=O)(=O)c3ccc(C)cc3)CCCN(S(=O)(=O)c3ccc(C)cc3)Cc3ccccc3OCCOCCOc3c(cccc3C4)Cc3cccc(c3OCCOCCOc3ccccc3C2)C5)cc1 | > 100 µM (inactive)
O=[N+]([O-])c1ccc(Cl)cc1/C=N/C12CC3CC(CC(C3)C1)C2 | 45.5 µM (inactive)
Cc1c2ccccc2c(C)n2c1nc1cc(Cl)c(Cl)cc12 | > 10 µM (inactive)
Cc1nnc(N)nc1/C=C\c1cccs1 | 16.2 µM (inactive)

Provide each entry's GI50 from the list below.
1. N#CCCC1(CCC#N)CCCCCCC(CCC#N)(CCC#N)C(O)C1O (centres undefined)
2. Cc1cc(C)c(S(=O)(=O)N(CCCN)OCCON(CCCN)S(=O)(=O)c2c(C)cc(C)cc2C)c(C)c1
3. COc1cc(-c2c3c(cc4c2OCO4)[C@@H](Nc2ccc(-c4ccc(-c5ccc(N[C@@H]6c7cc8c(cc7C(c7cc(OC)c(O)c(OC)c7)[C@H]7C(=O)OC[C@H]67)OCO8)cc5)cc4)cc2)[C@H]2COC(=O)[C@@H]2C3)cc(OC)c1O (some centres undefined)
4. CCCn1c2c(c3ccccc3c1=O)C(=O)c1ccccc1-2
5. CCCCCCCCCCCC[C@@H](O)[C@H]1CCC([C@H](O)CCCCC(=O)CCCCCCCC2=C[C@H](C)OC2=O)O1 (some centres undefined)
6. COc1cc(S(=O)(=O)Nc2ccc(-c3csc(N)n3)cc2)ccc1Cl

> 100 µM (inactive)
2.75 µM (inactive)
1.95 µM (inactive)
68.1 µM (inactive)
15 µM (inactive)
18.6 µM (inactive)

Provide each entry's GI50 from the list below.
1. O=Cc1cc(O)c(O)c(O)c1-c1c(C=O)cc(O)c(O)c1O
2. CCOC(=O)C(NC(=O)NC(C(=O)OCC)C(=O)OCC)C(=O)OCC
3. CC(=O)C1C(=O)NC(=O)C1=O (centres undefined)
4. Clc1ccc(OCc2nnc3sc(-c4ccc(-c5ccc(Cl)cc5Cl)o4)nn23)cc1
5. COc1nc(-c2c[nH]c3ccccc23)cnc1N
6. OC(c1cc(-c2ccccc2)nc2c1ccc1ccccc12)C1CCCCN1 (centres undefined)
7. Nc1nnc2nc(CC(=O)/C=C/c3ccccc3)c(=O)[nH]n12
8. Cc1ccc(S(=O)(=O)n2cc(/C=C/C#N)c(-c3cn(S(=O)(=O)c4ccc(C)cc4)cc3-c3cn(S(=O)(=O)c4ccc(C)cc4)cc3/C=C/C#N)c2)cc1

["> 100 µM (inactive)", "> 100 µM (inactive)", "> 100 µM (inactive)", "> 100 µM (inactive)", "30.1 µM (inactive)", "1.73 µM (inactive)", "> 100 µM (inactive)", "47 µM (inactive)"]
